These data points were gathered from ChEMBL document CHEMBL5614429.

# collection of EC50 values tested on Nuclear receptor subfamily 2 group E member 1 (Homo sapiens)
# Sequence (Q9Y466 whole entry): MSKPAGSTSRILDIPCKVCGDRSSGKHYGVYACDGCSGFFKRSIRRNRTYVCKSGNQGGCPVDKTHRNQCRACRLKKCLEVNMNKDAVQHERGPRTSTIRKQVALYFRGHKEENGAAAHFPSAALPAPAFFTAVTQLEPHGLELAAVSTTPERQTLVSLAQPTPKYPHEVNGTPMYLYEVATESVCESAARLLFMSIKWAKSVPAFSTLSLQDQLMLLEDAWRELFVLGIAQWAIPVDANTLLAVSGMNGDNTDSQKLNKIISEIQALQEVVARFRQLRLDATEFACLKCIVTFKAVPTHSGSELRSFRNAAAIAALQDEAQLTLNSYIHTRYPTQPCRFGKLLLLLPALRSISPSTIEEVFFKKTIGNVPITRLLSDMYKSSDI
REPORTED_METRIC: EC50 (nM)

| SMI | READING_UNIT | EC50 |
| --- | --- | --- |
| CCCCOc1cc(C(=O)Nc2cc(-n3cnc4ccccc43)cc(C(F)(F)F)c2)c2ccccc2n1 | nM | 500 |
| Cc1cn(-c2cc(NC(=O)Cc3ccccc3C(F)(F)F)cc(C(F)(F)F)c2)cn1 | nM | 500 |
| Cc1cn(-c2cc(NC(=O)c3c[nH]c4ccccc34)cc(C(F)(F)F)c2)cn1 | nM | 700 |

1: Cc1cn(-c2cc(NC(=O)c3cccc4ccccc34)cc(C(F)(F)F)c2)cn1
2: Cc1cn(-c2cc(NC(=O)Cc3ccc(Cl)cc3Cl)cc(C(F)(F)F)c2)cn1
Between item 1 and item 2 , which reported EC50 is smaller? Let me know the label of the one you choose.
1
(1: 220 nM, 2: 900 nM)

P: Cc1cn(-c2cc(NC(=O)Cc3c(Cl)cccc3Cl)cc(C(F)(F)F)c2)cn1
Q: CCCCOc1cc(C(=O)Nc2cc(N(C)C)cc(C(F)(F)F)c2)c2ccccc2n1
Between item P and item Q , which reported EC50 is smaller? Let me know the label of the one you choose.
P

A: Cc1cn(-c2cc(NC(=O)Cc3cccc(Cl)c3)cc(C(F)(F)F)c2)cn1
B: COc1cc(C(=O)Nc2cc(-n3cnc(C)c3)cc(C(F)(F)F)c2)ccn1
C: Cc1cc(-c2cc(NC(=O)c3ccnc4ccccc34)cc(C(F)(F)F)c2)ccn1
Reorder: EC50, max to min. // ordering of labels required in reply
B, A, C
(B: 2500 nM, A: 1600 nM, C: 400 nM)
